Target: T1, human OPGbp [143-317] (human, UniProt O14788 143-317)
T1 construct: also called OPGL
T1 sequence (looked up): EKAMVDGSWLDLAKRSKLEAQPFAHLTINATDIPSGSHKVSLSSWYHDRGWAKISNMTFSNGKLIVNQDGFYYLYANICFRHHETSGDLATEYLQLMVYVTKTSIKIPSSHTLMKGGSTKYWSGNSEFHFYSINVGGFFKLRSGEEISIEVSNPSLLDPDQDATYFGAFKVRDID
Experiment: SPR (BIAcore), immobilized OPGbp [143-317]

Binder | Readout unit | Kd
“AT” antibody variant S96D (heavy chain CDR3) (antibody, name in Kabat numbering, V domains shown, not shown: human IgG1 CH1, hinge, CH2 and CH3) VH: QVQLVQSGAEVRKPGASVKVSCKASGYDFSNYAIHWVRQAPGQRLEWMGWINAGNGNTKFSQKFQGRITVTRDTAASTAYMELRSLRSEDTAVYYCARDDSNMVRGIIIAYYFDYWGQGTLVTVSS VL: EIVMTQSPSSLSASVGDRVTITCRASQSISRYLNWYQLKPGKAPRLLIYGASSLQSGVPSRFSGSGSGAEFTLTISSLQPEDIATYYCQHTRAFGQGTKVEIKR | nM | 0.51
“AT” antibody variant S96E (heavy chain CDR3) (antibody, name in Kabat numbering, V domains shown, not shown: human IgG1 CH1, hinge, CH2 and CH3) VH: QVQLVQSGAEVRKPGASVKVSCKASGYDFSNYAIHWVRQAPGQRLEWMGWINAGNGNTKFSQKFQGRITVTRDTAASTAYMELRSLRSEDTAVYYCARDESNMVRGIIIAYYFDYWGQGTLVTVSS VL: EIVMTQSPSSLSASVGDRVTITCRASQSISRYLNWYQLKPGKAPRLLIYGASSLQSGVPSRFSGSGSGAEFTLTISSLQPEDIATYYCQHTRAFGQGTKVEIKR | nM | 0.35
“AT” antibody variant S96R (heavy chain CDR3) (antibody, name in Kabat numbering, V domains shown, not shown: human IgG1 CH1, hinge, CH2 and CH3) VH: QVQLVQSGAEVRKPGASVKVSCKASGYDFSNYAIHWVRQAPGQRLEWMGWINAGNGNTKFSQKFQGRITVTRDTAASTAYMELRSLRSEDTAVYYCARDRSNMVRGIIIAYYFDYWGQGTLVTVSS VL: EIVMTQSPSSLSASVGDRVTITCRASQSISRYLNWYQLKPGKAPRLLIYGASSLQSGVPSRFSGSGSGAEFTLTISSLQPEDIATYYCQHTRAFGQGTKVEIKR | nM | 0.38
